# assayed-target: hα2A receptor (Homo sapiens, UniProt P08913)
# Construct: expressed in transfected cells; host or cells: CHO cells
# Sequence (P08913 1-465): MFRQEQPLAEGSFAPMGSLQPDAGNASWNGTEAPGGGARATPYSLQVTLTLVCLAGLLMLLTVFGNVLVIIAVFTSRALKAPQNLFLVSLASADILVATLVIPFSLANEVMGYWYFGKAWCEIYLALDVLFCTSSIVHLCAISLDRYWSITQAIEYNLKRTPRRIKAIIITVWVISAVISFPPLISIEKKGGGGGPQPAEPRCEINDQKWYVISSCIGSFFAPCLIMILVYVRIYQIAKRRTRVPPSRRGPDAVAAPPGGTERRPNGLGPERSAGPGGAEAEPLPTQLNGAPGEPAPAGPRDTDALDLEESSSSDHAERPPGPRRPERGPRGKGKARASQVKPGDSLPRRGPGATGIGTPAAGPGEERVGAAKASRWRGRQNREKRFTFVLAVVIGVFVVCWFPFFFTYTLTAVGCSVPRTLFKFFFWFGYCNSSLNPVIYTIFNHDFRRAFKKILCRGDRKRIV
# assay-method-text: Radioligand binding experiment for α2A-adrenergic receptor ([3H]-raulwolscine)
# study-conditions: CHO cell membranes with human α2A receptor, [3H]raulwolscine 1 nM; read-out: pIC50 α2A (converted)
Listing of entries alongside the reported IC50.
Numbers only; they are read as nM.

# example entries with known answers
[
  {
    "compound": "C=CCN(C)CCN(C)c1ccc2c(c1)OCC1C2=NOC1CN1CCN(CC(C)=Cc2ccc(F)cc2)CC1 (stereo not shown)",
    "reported-result": 501
  },
  {
    "compound": "CC(=Cc1ccc(F)cc1)CN1CCN(CC2ON=C3c4ccc(NC(C)C)cc4OCC32)CC1 (stereo not shown)",
    "reported-result": 63.1
  },
  {
    "compound": "CC(=Cc1ccc(F)cc1)CN1CCN(CC2ON=C3c4ccc(N(C)CCN(C)C(C)(C)C)cc4OCC32)CC1 (stereo not shown)",
    "reported-result": 39.8
  }
]

With those in mind, consider the next compound.
Hello, please tell me recorded IC50 for this one: CC(=Cc1ccccc1)CN1CCN(CC2ON=C3c4ccc(N(C)c5ccccc5)cc4OCC32)CC1 (stereo not shown)
25.1

----------
# assayed-target: hα2A receptor (Homo sapiens, UniProt P08913)
# Construct: expressed in transfected cells; host or cells: CHO cells
# assay-method-text: Radioligand binding experiment for α2A-adrenergic receptor ([3H]-raulwolscine)
# study-conditions: CHO cell membranes with human α2A receptor, [3H]raulwolscine 1 nM; read-out: pIC50 α2A (converted)
Listing of entries alongside the reported log10(IC50).
Values reflect log10 of reported IC50 (nM).

# example entries with known answers
[
  {
    "compound": "COc1cc2c(cc1N1CCC1)OCC1C2=NOC1CN1CCN(CC(C)=Cc2ccc(F)cc2)CC1 (stereo not drawn) [Compound 102]",
    "assayed-target": "hα2A receptor (Homo sapiens, UniProt P08913)",
    "log10(IC50)": 1.30
  },
  {
    "compound": "CC(=Cc1ccc(F)cc1)CN1CCN(CC2ON=C3c4ccc(NCCN5CCOCC5)cc4OCC32)CC1 (stereo not drawn) [Compound 30]",
    "assayed-target": "hα2A receptor (Homo sapiens, UniProt P08913)",
    "log10(IC50)": 1.70
  },
  {
    "compound": "COc1ccc(NC(=O)Nc2ccc3c(c2)OCC2C3=NOC2CN2CCN(C/C(C)=C/c3ccccc3)CC2)cc1OC (stereo not drawn) [Compound 7]",
    "assayed-target": "hα2A receptor (Homo sapiens, UniProt P08913)",
    "log10(IC50)": 1.20
  },
  {
    "compound": "CC(=Cc1ccc(F)cc1)CN1CCN(CC2ON=C3c4ccc(N5CCC(C)C5=O)cc4OCC32)CC1 (stereo not drawn) [Compound 139]",
    "assayed-target": "hα2A receptor (Homo sapiens, UniProt P08913)",
    "log10(IC50)": 1.20
  },
  {
    "compound": "c1ccc2cc(CN3CCN(CC4ON=C5c6cc7c(cc6OCC54)NCCO7)CC3)ccc2c1 (stereo not drawn) [Compound 92]",
    "assayed-target": "hα2A receptor (Homo sapiens, UniProt P08913)",
    "log10(IC50)": 1.30
  },
  {
    "compound": "CNc1cc2c(cc1OC)C1=NOC(CN3CCN(CC(C)=Cc4cccc(F)c4)CC3)C1CO2 (stereo not drawn) [Compound 17]",
    "assayed-target": "hα2A receptor (Homo sapiens, UniProt P08913)",
    "log10(IC50)": 0.90
  },
  {
    "compound": "COc1cc2c(cc1NC(=O)C1CC1)OCC1C2=NOC1CN1CCN(CC(C)=Cc2cccc(F)c2)CC1 (stereo not drawn) [Compound 53]",
    "assayed-target": "hα2A receptor (Homo sapiens, UniProt P08913)",
    "log10(IC50)": 0.60
  },
  {
    "compound": "CNCCNc1ccc2c(c1)OCC1C2=NOC1CN1CCN(CC(C)=Cc2ccc(F)cc2)CC1 (stereo not drawn) [Compound 20]",
    "assayed-target": "hα2A receptor (Homo sapiens, UniProt P08913)",
    "log10(IC50)": 1.50
  }
]

Hello, please tell me recorded log10(IC50) for this one: CCNc1cc2c(cc1OC)C1=NOC(CN3CCN(CC(C)=Cc4ccc(F)cc4)CC3)C1CO2 (stereo not drawn) [Compound 105]
1.70
